Below, each entry is listed with its recorded inhibition.
Species: Homo sapiens
assayOverview: Inhibition of human recombinant synovial PLA2 by at 5 uM
The reply must contain the numeric value and, after it, the unit.

Example substances with recorded inhibition:
>>> reportedresult("H-LGRVDIHVWDGV-OH")
"34.2%"
>>> reportedresult("H-VDIHVWSGV-OH")
"52.5%"
>>> reportedresult("H-LGRVDIHVWDGVY-OH")
"48.7%"
>>> reportedresult("H-VDIHVWEGV-OH")
"57.6%"
>>> reportedresult("H-IHVWDGV-OH")
"35.4%"

For the substance H-LGRVDIHVWDGVYI-OH , what inhibition is on record?
49.7%

Sample H-VDIHVWDGVVDIHVWDGV-OH — what was its inhibition?
74.5%

Name the reported inhibition value associated with the substance H-LGRVDIHVWDGVYIRG-OH
52.4%

What value of measured inhibition is listed for H-LGRVDIHVWDGVYIR-OH ?
51%

Looking for the measured inhibition of H-VDIHVWAGV-OH , can you help?
48.5%

GET /values?readout=inhibition&item= H-LGRVDIHVWDGVYIRGR-OH
55.6%

====

Species: Homo sapiens
assayOverview: Inhibition of human recombinant synovial PLA2 by at 5 uM
assayMetric: inhibition (%)
Entry rule: numbers only, all in %.

Consider the reported inhibition for these compounds:
>>> reportedresult("CC[C@H](C)[C@@H](NC(=O)[C@@H](N)CC(=O)O)C(=O)N[C@@H](Cc1cnc[nH]1)C(=O)N[C@H](C(=O)N[C@@H](Cc1c[nH]c2ccccc12)C(=O)N[C@@H](CC(=O)O)C(=O)NCC(=O)N[C@H](C(=O)O)C(C)C)C(C)C")
45.9
>>> reportedresult("CC[C@H](C)[C@@H](NC(=O)[C@H](CC(=O)O)NC(=O)[C@@H](NC(=O)[C@@H](N)CCCNC(=N)N)C(C)C)C(=O)N[C@@H](Cc1cnc[nH]1)C(=O)N[C@H](C(=O)N[C@@H](Cc1c[nH]c2ccccc12)C(=O)N[C@@H](CC(=O)O)C(=O)NCC(=O)N[C@H](C(=O)O)C(C)C)C(C)C")
59.5

Entry CC[C@H](C)[C@@H](NC(=O)[C@H](CC(=O)O)NC(=O)[C@@H](NC(=O)[C@H](CCCNC(=N)N)NC(=O)CN)C(C)C)C(=O)N[C@@H](Cc1cnc[nH]1)C(=O)N[C@H](C(=O)N[C@@H](Cc1c[nH]c2ccccc12)C(=O)N[C@@H](CC(=O)O)C(=O)NCC(=O)N[C@H](C(=O)O)C(C)C)C(C)C has what inhibition?
14.2

Consider the compound shown here: CC[C@H](C)[C@@H](NC(=O)[C@H](CC(=O)O)NC(=O)[C@@H](N)C(C)C)C(=O)N[C@@H](Cc1cnc[nH]1)C(=O)N[C@H](C(=O)N[C@@H](Cc1c[nH]c2ccccc12)C(=O)N[C@@H](CC(=O)O)C(=O)NCC(=O)N[C@H](C(=O)O)C(C)C)C(C)C What is its recorded inhibition?
56.4
